Ref: the RNAGym collection of RNA variant scans (doi:10.7554/elife.80360)

B1: Hairpin Ribozyme (parent)
chain: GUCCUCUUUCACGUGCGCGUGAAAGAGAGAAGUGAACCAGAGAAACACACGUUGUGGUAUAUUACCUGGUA

Variants of: B1
Assay: self-cleavage, relative activity (ratio to wild type); higher = more cleavage; co-transcriptional
Property Name: self-cleavage
Write the number on its own, no unit after it.

Consider the worked cases shown below.
# Mutation List, Assay Value
data = [
    ("C3G G34U", 1.01),
    ("U5A U67G", 0.112),
    ("G42U A44U", 0.19),
    ("C12A C16A", 0.964),
    ("C12U G69C", 0.367),
]

Pending variant:
Q: Look at this variant and give its reported self-cleavage. C18U C46G
Ans: 0.145
